TARGET: T1, soluble human CD3 epsilon chain (human, UniProt P07766 23-126)
T1 construct: also called CD3ε
T1 sequence (P07766 23-126 limits assumed): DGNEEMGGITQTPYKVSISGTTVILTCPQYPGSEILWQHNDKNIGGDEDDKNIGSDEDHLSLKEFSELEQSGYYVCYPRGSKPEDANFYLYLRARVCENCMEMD
TEST SUMMARY: SPR
A collection of binders and their measured pKd
# log scale: pKd equals minus log10 of the concentration in mol/L

Recorded pKd, per entry:
>  <BINDER>
TR01H102-E22Hh/none-Hi-Kn010G3/L0011-k0 (antibody, V domains shown, one-arm) VH: QVQLVESGGGLVQPGRSLRLSCAASGFTFSNAWMHWVRQAPGKGLEWVAQIKDKSQNYATYFAESVKGRFTISRDDSKNSLYLQMNSLKTEDTAVYYCRYVHYAAGYGVDAWGQGTTVTVSS VL: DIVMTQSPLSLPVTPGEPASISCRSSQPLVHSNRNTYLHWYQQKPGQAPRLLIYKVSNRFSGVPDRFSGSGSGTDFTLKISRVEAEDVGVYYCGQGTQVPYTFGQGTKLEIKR

>  <OBSERVED RESULT>
7.07

$$$$
>  <BINDER>
TR01H040-E22Hh/none-Hi-Kn010G3/L0205-k0 (antibody, V domains shown, one-arm) VH: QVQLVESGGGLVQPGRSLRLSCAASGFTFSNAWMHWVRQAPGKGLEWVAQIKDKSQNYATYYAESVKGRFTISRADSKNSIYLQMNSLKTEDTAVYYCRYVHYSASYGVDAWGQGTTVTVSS VL: DIVMTQSPLSLPVTPGEPASISCRSSQSPVHSNRNTYLHWYQQKPGQAPRLLIYKVSNRFWGVPDRFSGSGSGTDFTLKISRVEAEDVGVYYCGQGTQVPYTFGQGTKLEIK

>  <OBSERVED RESULT>
7.47

$$$$
>  <BINDER>
TR01H003-E22Hh//-Hi-Kn010G3/L0000-k0 (antibody, V domains shown, one-arm) VH: QVQLVESGGGVVQPGRSLRLSCAASGFTFSNAWMHWVRQAPGKGLEWVAQIKAKSNNYATYYAESVKGRFTISRDDSKNSLYLQMNSLKTEDTAVYYCRRVHYGAYYGVDAWGQGTTVTVSS VL: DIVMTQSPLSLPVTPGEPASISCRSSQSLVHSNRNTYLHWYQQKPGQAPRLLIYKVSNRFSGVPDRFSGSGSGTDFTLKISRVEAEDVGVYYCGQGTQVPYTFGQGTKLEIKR

>  <OBSERVED RESULT>
7.39

$$$$
>  <BINDER>
TR01H082-E22Hh/none-Hi-Kn010G3/L0259-k0 (antibody, V domains shown, one-arm) VH: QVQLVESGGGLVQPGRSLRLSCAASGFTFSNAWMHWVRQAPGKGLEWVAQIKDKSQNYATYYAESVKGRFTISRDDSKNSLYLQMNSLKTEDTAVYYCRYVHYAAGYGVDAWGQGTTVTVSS VL: DIVMTQSPLSLPVTPGEPASISCRSSQSPVHSNRNTYIHWYQQKPGQAPRLLIYKVSNRFSGVPDRFSGSGSGTDFTLKISRVEAEDVGVYYCTQGTQVPYTFGQGTKLEIK

>  <OBSERVED RESULT>
7.29

$$$$

Now for the binder whose pKd we want.
Consider the binder TR01H040-E22Hh/none-Hi-Kn010G3/L0000-k0 (antibody, V domains shown, one-arm) VH: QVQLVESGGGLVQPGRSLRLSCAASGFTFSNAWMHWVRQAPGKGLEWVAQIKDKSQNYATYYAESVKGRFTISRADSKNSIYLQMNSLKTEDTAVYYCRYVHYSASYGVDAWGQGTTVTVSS VL: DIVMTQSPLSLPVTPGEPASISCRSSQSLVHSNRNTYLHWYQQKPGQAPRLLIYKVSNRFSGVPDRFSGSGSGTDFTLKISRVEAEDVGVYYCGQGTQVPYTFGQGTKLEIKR and give its measured pKd.
7.44

Provenance of the data: patent US20250066503A1
